// provenance: ChEMBL document CHEMBL1123796

Kindly supply the reported log10(IC50) values for the records listed here.
assay: In vitro inhibition of human UACC-66 ovarian tumor cell line growth.; type: functional; conditions: read-out: ID50 (the source's name)
Scale: log10; quantity: IC50; unit before log: µM

// field: log10(IC50); key: "OCCOCCNCc1c2ccccc2c(CNCCOCCO)c2ccccc12" ; value = 0.82

// "c1ccc2c(CNCCN3CCOCC3)c3ccccc3c(CNCCN3CCOCC3)c2c1" : log10(IC50) value = -1.52

Entry C(=N\NC1=NCCN1)/c1c2ccccc2c(/C=N/NC2=NCCN2)c2ccccc12 [BISANTRENE] ; log10(IC50) = 0.38

log10(IC50) reading for "OCCCNCc1c2ccccc2c(CNCCCO)c2ccccc12" : 1.26

Memo: "C(=N\Nc1nccs1)/c1c2ccccc2c(/C=N/Nc2nccs2)c2ccccc12" , reported log10(IC50): 0.94

# log10(IC50) (compound: "CNCCN(C)Cc1c2ccccc2c(CN(C)CCNC)c2ccccc12" ) is 0.53

Record "OCCCCCNCc1c2ccccc2c(CNCCCCCO)c2ccccc12" . Reported log10(IC50): 1.39

Item: "CN(C)CCN(C)Cc1c2ccccc2c(CN(C)CCN(C)C)c2ccccc12" | log10(IC50): -0.15

// "CN(C)CCNCc1c2ccccc2c(CNCCN(C)C)c2ccccc12" : log10(IC50) value = 0.20

The measured log10(IC50) associated with "c1ccc2c(CC3=NCCN3)c3ccccc3c(CC3=NCCN3)c2c1" reads 0.64

// sample "OCCNCc1c2ccccc2c(CNCCO)c2ccccc12" , its log10(IC50) was 1.87

Summary for this compound, "NCCNCc1c2ccccc2c(CNCCN)c2ccccc12" : log10(IC50) is 0.62

Data point: "NCCN(CCO)Cc1c2ccccc2c(CN(CCN)CCO)c2ccccc12" ; log10(IC50) = 0.76
